# targetOrSystem: EGFR (Human), P00533 [Assessment of EGFR-Del T790M Dependent Cell Proliferation in BaF3 Cells]
# Sequence (P00533 whole entry, looked up, stated change not applied): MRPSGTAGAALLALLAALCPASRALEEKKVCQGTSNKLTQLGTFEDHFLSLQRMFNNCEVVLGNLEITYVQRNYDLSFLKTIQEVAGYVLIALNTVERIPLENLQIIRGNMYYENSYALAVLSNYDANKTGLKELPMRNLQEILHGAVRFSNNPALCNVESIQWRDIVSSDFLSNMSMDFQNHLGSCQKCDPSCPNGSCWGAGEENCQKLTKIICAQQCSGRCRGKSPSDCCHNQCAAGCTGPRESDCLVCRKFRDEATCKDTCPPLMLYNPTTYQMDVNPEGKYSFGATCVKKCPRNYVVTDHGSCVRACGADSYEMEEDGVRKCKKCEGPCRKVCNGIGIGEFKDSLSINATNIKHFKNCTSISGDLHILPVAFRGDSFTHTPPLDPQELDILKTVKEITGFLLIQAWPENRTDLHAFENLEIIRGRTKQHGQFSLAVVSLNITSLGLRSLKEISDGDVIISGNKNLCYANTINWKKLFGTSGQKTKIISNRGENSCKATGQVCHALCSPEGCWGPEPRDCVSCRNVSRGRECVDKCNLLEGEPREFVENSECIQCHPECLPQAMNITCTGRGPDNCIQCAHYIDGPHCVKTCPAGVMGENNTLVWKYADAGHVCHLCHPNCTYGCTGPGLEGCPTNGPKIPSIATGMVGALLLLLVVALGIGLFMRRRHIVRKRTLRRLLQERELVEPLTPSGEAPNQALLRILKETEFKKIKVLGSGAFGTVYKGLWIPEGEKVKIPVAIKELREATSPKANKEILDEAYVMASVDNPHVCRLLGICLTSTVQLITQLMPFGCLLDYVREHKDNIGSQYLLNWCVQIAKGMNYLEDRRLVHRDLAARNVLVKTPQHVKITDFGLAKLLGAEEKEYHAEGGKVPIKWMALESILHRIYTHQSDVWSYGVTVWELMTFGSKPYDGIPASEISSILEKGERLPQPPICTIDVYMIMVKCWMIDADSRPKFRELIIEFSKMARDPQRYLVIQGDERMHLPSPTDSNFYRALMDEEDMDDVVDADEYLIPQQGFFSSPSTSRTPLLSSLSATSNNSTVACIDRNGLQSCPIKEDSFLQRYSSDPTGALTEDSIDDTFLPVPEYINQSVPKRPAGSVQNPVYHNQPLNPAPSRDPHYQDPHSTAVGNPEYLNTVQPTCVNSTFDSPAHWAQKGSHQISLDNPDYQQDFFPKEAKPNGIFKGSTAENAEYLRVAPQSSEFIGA
pIC50: −log10 of the molar value.
quantityKind: pIC50

// below: answered molecules
{"molecule": "C=CC(=O)Nc1cc(Nc2ncc(Cl)c(Nc3ccccc3P(C)(C)=O)n2)c(OC)cc1N1CCC(N(C)C)C1 (stereo not drawn)", "pIC50": "> 7.30"}
{"molecule": "C=CC(=O)Nc1cc(Nc2ncc(Cl)c(Nc3ccccc3P(C)(C)=O)n2)c(OC)cc1N(C)CCN(C)CCF", "pIC50": "> 7.30"}
{"molecule": "COc1cc(F)c(NC(=O)C#CCN(C)C)cc1Nc1ncc(Cl)c(Nc2ccccc2P(C)(C)=O)n1", "pIC50": "> 7.30"}
{"molecule": "C=CC(=O)Nc1cc(Nc2ncc(Cl)c(Nc3ccccc3P(C)(C)=O)n2)c(OC)cc1N1CCC(N2CCCN(C)CC2)CC1", "pIC50": "7.00 to 7.30"}
{"molecule": "C=CC(=O)Nc1cc(Nc2ncc(Cl)c(Nc3ccccc3P(C)(C)=O)n2)c(OC)cc1OCCN1CCCCC1", "pIC50": "> 7.30"}
{"molecule": "CC#CC(=O)Nc1cc(Nc2ncc(Cl)c(Nc3ccccc3P(C)(C)=O)n2)c(OC)cc1N1CCC(N2CCN(C)CC2)CC1", "pIC50": "> 7.30"}
{"molecule": "C=CC(=O)Nc1cc(Nc2ncc(Cl)c(Nc3ccccc3P(C)(C)=O)n2)c(OC)cc1OCC1CCN(C)CC1", "pIC50": "6.60 to 7.00"}

API: the following record is the query input.
Req: Fill blank: measured pIC50 of the molecule Cc1ccc(NC(=O)CCl)cc1Nc1ncc(Cl)c(Nc2ccccc2P(C)(C)=O)n1 is ____.
Resp: > 7.30

Reference for the values: the Kinase Knowledgebase extract (Sharma et al. 2016)
